Each recorded value in this set is attributed to patent US20160185837A1.

Some binders, each annotated with its measured cAMP EC50.
Molecular target: T1, human GIP receptor (human, UniProt P48546 22-466)
T1 sequence (looked up): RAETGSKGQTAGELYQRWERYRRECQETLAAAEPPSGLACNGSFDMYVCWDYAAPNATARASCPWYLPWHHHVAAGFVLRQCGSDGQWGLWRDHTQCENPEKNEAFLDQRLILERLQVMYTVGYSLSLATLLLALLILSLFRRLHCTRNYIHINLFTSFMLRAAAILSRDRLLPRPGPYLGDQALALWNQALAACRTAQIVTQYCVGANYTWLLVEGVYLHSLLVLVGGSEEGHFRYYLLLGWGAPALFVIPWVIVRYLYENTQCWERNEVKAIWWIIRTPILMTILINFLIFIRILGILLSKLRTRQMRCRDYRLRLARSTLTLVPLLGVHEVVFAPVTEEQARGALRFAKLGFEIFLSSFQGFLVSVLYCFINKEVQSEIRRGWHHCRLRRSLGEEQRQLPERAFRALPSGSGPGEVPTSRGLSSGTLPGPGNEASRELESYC
Assay: cell-based or functional assay

>  <BINDER>
IP088 (Fc fusion) YSEGTFTSDYSKLLEEEAVRLFIEWLVKGPAAAGGSGSTASSGSGSATGGGGAATHTCPPCPAPEF

>  <cAMP EC50 / pM>
7.8

$$$$
>  <BINDER>
IP304 (Fc fusion) YSEGTFTSDVSSYLERQAIEEFIAWLLKGGAAAGGSGSTASSGSGSATGGGGAATHTCPPC

>  <cAMP EC50 / pM>
100

$$$$
>  <BINDER>
IP239 (Fc fusion) YSEGTFTSDYSKLLEEEAVRLFIEWLVKGPAAAGGSGSTASSGSGSATGGGGAACPPCPAPEF

>  <cAMP EC50 / pM>
8

$$$$
>  <BINDER>
IP259 (Fc fusion) YSEGTFTSDYSKLLEKEAVRLFIEWLVKGPGGGGGSGGGGSGGGGSGGGGSATHTCPPCPAPEF

>  <cAMP EC50 / pM>
27

$$$$
>  <BINDER>
IP244 (Fc fusion) YSEGTFTSDVSKLLEEEAVRLFIEWLLAGAPPGGSGSTASSGSGSATGGGGAATHTCPPCPAPEF

>  <cAMP EC50 / pM>
42

$$$$
>  <BINDER>
IP255 (Fc fusion) YSEGTFTSDYSKLLEEEAVRLFIEWLKNGTGGGGGSGGGGSGGGGSGGGGSATHTCPPCPAPEF

>  <cAMP EC50 / pM>
70

$$$$
>  <BINDER>
IP172 (Fc fusion) HGEGTFTSDVSSYMERQAIDEFIAWLLAGAAAGGSGSTASSGSGSATGGGGAATHTCPPCPAPEF

>  <cAMP EC50 / pM>
16000

$$$$
>  <BINDER>
IP198 (Fc fusion) HGEGTFTSDVSSYMERQAIDEFIAWLLKGGAAAGGSGSTASSGSGSATGGGGAATHTCPPCPAPEF

>  <cAMP EC50 / pM>
6300

$$$$
>  <BINDER>
IP243 (Fc fusion) YSEGTFTSDYSKLLEEEAQRLFIEWLVKGPAAAGGSGSTASSGSGSATGGGGAATHTCPPCPAPEF

>  <cAMP EC50 / pM>
10

$$$$
>  <BINDER>
IP258 (Fc fusion) YSEGTFTSDYSKLLDEEAVRLFIEWLVKGPGGGGGSGGGGSGGGGSGGGGSATHTCPPCPAPEF

>  <cAMP EC50 / pM>
39

$$$$
>  <BINDER>
IP360 (Fc fusion) YSEGTFTSDYRILLEEEAVRLFIEWLLAGGGGGGSGGGGSGGGGSGGGGSATHTCPPC

>  <cAMP EC50 / pM>
16

$$$$
